Assay: Stability of ISO in plasma samples under various storage conditions
Assay type: in vitro ADME
Details: mouse plasma, 45.0 ng/mL, long term-stability (−80 °C for 52 days); read-out: Remaining (%, Mean ± SD)
reported.endpoint: remaining at 1248 h, 45 ng/mL (%)
One number for each entry, in %.

GET /values?readout=remaining at 1248 h, 45 ng/mL&item= COc1cc(/C=C/c2cc(O)cc(O)c2)ccc1O
102

* * *

Assay: Stability of ISO in tissue homogenates
Format: in vitro ADME
Settings: mouse; kidney homogenate, 45.0 ng/mL; read-out: Stability Remaining (%, Mean ± SD) Short-Term Stability (6 h on Ice)
reported.endpoint: remaining at 6 h, 45 ng/mL (%)
Give bare numbers, in %.

Please report the recorded remaining at 6 h, 45 ng/mL for COc1cc(/C=C/c2cc(O)cc(O)c2)ccc1O .
96.8

* * *

Experiment: Stability of ISO in tissue homogenates
Assay type: in vitro ADME
Details: mouse; liver homogenate, 45.0 ng/mL; read-out: Stability Remaining (%, Mean ± SD) Short-Term Stability (6 h on Ice)
reported.endpoint: remaining at 6 h, 45 ng/mL (%)
Give bare numbers, in %.

Give its remaining at 6 h, 45 ng/mL value. Item: COc1cc(/C=C/c2cc(O)cc(O)c2)ccc1O [ISO]
103

* * *

Assay: Stability of ISO in plasma samples under various storage conditions
Type: in vitro ADME
Settings: mouse plasma, 45.0 ng/mL, post-preparative stability (autosampler at 4 °C for at least 24 h); read-out: Remaining (%, Mean ± SD)
reported.endpoint: remaining at 24 h, 45 ng/mL (%)
One number for each entry, in %.

Query: remaining at 24 h, 45 ng/mL; subject: COc1cc(/C=C/c2cc(O)cc(O)c2)ccc1O
102
